System: T1, human IL-6 (human, UniProt P05231 30-212)
T1 construct: also called interleukin-6
T1 sequence (P05231 30-212 limits assumed): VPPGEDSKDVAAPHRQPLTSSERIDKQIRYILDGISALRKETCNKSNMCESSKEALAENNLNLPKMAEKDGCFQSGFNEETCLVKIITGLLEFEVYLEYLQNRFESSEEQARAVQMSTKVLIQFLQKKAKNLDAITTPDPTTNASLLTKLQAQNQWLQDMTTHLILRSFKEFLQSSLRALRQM
Method description: SPR (Biacore T200), purified antibody captured on Protein A, IL-6 flowed over, 37 C
Measurement kind: kon (M⁻¹ s⁻¹)
# value in M⁻¹ s⁻¹; strip the unit string

# kon of anti-IL-6 antibody, heavy chain T63K, G66D / light chain WT (antibody, human IgG1, V domains shown, Derived as m2; Engineered human IgG1) VH: EVQLVESGGGLVQPGGSLRLSCAASGFTFSPFAMSWVRQAPGKGLEWVAKISPGGSWTYYSDKVTDRFTFSLDTSKSTAYLQMNSLRAEDTAVYYCARQLWGYYALDIWGQGTLVTVSS VL: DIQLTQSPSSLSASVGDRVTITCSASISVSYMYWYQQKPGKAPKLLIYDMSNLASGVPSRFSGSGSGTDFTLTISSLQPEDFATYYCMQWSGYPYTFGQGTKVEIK = 1.46e+06

# kon of anti-IL-6 antibody, heavy chain G66D / light chain WT (antibody, human IgG1, V domains shown, Derived as m2; Engineered human IgG1) VH: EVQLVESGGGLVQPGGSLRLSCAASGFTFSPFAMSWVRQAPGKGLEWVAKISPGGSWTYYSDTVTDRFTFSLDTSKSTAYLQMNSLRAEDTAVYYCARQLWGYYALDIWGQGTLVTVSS VL: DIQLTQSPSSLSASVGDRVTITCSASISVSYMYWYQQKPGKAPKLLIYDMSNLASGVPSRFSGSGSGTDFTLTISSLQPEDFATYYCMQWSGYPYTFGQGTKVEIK = 1.57e+06

# kon of anti-IL-6 antibody, heavy chain T63Q, G66D / light chain WT (antibody, human IgG1, V domains shown, Derived as m2; Engineered human IgG1) VH: EVQLVESGGGLVQPGGSLRLSCAASGFTFSPFAMSWVRQAPGKGLEWVAKISPGGSWTYYSDQVTDRFTFSLDTSKSTAYLQMNSLRAEDTAVYYCARQLWGYYALDIWGQGTLVTVSS VL: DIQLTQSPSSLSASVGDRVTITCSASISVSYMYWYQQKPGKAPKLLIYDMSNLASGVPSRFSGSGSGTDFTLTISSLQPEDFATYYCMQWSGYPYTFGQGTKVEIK = 1.3e+06

# kon of anti-IL-6 antibody, heavy chain WT / light chain WT (antibody, human IgG1, V domains shown, Full antibody on an engineered human IgG1 framework, Fc with L234A, L235A, G237A and L443C (EU numbering), expressed in Expi293 cells; also called wild-type; parent molecule) VH: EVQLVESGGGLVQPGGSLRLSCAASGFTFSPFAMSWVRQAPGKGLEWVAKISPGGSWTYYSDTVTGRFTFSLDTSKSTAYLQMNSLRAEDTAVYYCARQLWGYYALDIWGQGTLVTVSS VL: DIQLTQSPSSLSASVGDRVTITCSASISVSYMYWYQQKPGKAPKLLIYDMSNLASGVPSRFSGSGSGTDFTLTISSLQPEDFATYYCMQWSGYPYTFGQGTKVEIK = 565000
